# credit: patent US8580957B2

- Tested on: TNFα levels in LPS stimulated whole blood
- Protocol description: LPS Stimulated Whole Blood Measuring TNFα Levels Assay
- Type: cell-based
- Condition parameters: LPS 200 ng/ml, 24 hours, read-out: pIC50 (TNFα levels) (converted)
Counter-ions that a name gives are not always drawn.
Measurement type: IC50

1. CC[C@@H]1C[C@H](Nc2ccccc2)c2cc(-c3ccc(C(=O)O)cc3)ccc2N1C(C)=O (racemic) : ≤ 10 µM
2. CC(=O)N1c2ccc(-c3ccc(CN4CCCCC4)cc3)cc2[C@@H](Nc2ccc(Cl)cn2)C[C@H]1C (racemic) [Example 136, formate salt] : ≤ 10 µM
3. CC(=O)N1c2ccc(-c3ccc(CN4CCCCC4)cc3)cc2[C@@H](Nc2ccncc2)C[C@H]1C (racemic) [Example 138, trifluoroacetate] : ≤ 10 µM

* * *

- Test system: LPS induced IL-6 secretion from whole blood
- Protocol description: Measurement of LPS Induced IL-6 Secretion from Whole Blood
- Type: cell-based
- Condition parameters: LPS 200 ng/ml, 24 hours, read-out: pIC50 (IL-6 levels) (converted)
Counter-ions that a name gives are not always drawn.
The entries below are paired with their reported IC50.
Measurement type: IC50

1. CNCCn1cc(-c2ccc3c(c2)[C@H](Nc2cccc(F)n2)C[C@H](C)N3C(C)=O)cn1 [Example 151, hydrochloride] : ≤ 10 µM
2. CC(=O)N1c2ccc(-n3cnc(C)c3)cc2[C@H](Nc2ccc(C)cn2)C[C@@H]1C [Example 190] : > 10 µM
3. CC(=O)N1c2ccc(-n3cnc(C)c3)cc2[C@@H](Nc2ccc(C#N)cn2)C[C@H]1C (racemic) [Example 159] : ≤ 10 µM
4. CC(=O)N1c2ccc(-n3cnc(C)c3)cc2[C@@H](Nc2ccc(C(=O)O)cn2)C[C@H]1C (racemic) [Example 143] : > 10 µM

* * *

Measurement type: melting point

1. CC(=O)N1c2ccc(-c3ccc(C(=O)N4CCOCC4)cc3)cc2C(Nc2ccc(Cl)cc2)CC1C (stereo not drawn) : 146 °C
2. CC(=O)N1c2ccc(-c3ccc(C#N)cc3)cc2[C@@H](Nc2ccc(F)cc2)C[C@H]1C (racemic) : 140 °C
3. CCN(c1ccccc1)[C@H]1C[C@@H](C)N(C(C)=O)c2ccc(-c3ccccc3)cc21 (stereo in doubt) : 121 °C
4. CCOC(=O)c1ccc(-c2ccc3c(c2)[C@@H](Nc2ccc(Cl)cc2)C[C@@H](C)N3C(C)=O)cc1 (stereo in doubt) : 114 °C
5. CCNC(=O)c1ccc(-c2ccc3c(c2)[C@@H](Nc2ccc(Cl)cc2)C[C@@H](C)N3C(C)=O)cc1 (stereo in doubt) : 134 °C
6. CC(=O)N1c2ccc(-c3ccc(-c4nn[nH]n4)cc3)cc2[C@@H](Nc2ccc(Cl)cc2)C[C@H]1C (stereo in doubt) : 250 °C
7. COC(=O)c1ccc(-c2ccc3c(c2)C(Nc2ccc(C#N)cc2)CC(C)N3C(C)=O)cc1 (stereo not drawn) : 252 °C
8. CC(=O)N1c2ccc(-c3ccc(CN4CCCCC4)cc3)cc2[C@@H](Nc2ccc(F)cc2)C[C@H]1C (racemic) : 106 °C
9. CC(=O)N1c2ccc(-c3ccc(CN(C)C)cc3)cc2[C@@H](Nc2ccccc2)C[C@H]1C (racemic) : 90 °C
